The measured values listed here are drawn from patent US20030023101A1.

assay_overview: Maximum dissolving concentration of fumaric acid in the solvent (Referential Example 2)
Type: physicochemical
condition_description: fumaric acid as solute in 80 g solvent, 20° C.; insoluble = residue even at 0.01 g
measured_endpoint: Maximum dissolving concentration in solvent, Fumaric acid (% by weight)
Kindly provide the numeric value in % by weight only, without the unit symbol.

Identify measured Maximum dissolving concentration in solvent, Fumaric acid corresponding to CC(=O)CC(C)C
0.14

More entries:
Please list Maximum dissolving concentration in solvent, Fumaric acid recorded for the molecule CC(C)C(=O)C(C)C
0.02

----------
assay_overview: Maximum dissolving concentration of maleic acid in the solvent (Referential Example 2)
Assay type: physicochemical
condition_description: maleic acid as solute in 80 g solvent, 20° C.; insoluble = residue even at 0.01 g
Method: In a tightly closable glass vessel measuring 100 ml in inner volume and furnished with a lid, 80 g of a given solvent kept at a temperature of 20° C. was placed and stirred with a stirrer and meanwhile maleic acid or fumaric acid of the special reagent grade as defined in the paragraph covering the determination of maximum dissolution concentration was added to the stirred solvent. […] The minimum quantity of addition was set at 0.01 g. […]
Parameter Maximum dissolving concentration in solvent, Maleic acid: see the listing below.
Please state the figure in % by weight; there is no need to write the unit.

Some compounds with recorded Maximum dissolving concentration in solvent, Maleic acid:
Identify measured Maximum dissolving concentration in solvent, Maleic acid corresponding to CC(C)CC(=O)CC(C)C [DIBK, diisobutyl ketone]
0.62

Note down Maximum dissolving concentration in solvent, Maleic acid recorded for CC(C)C(=O)C(C)C [DIPK, diisopropylketone]
1.22

More entries:
Read off the recorded Maximum dissolving concentration in solvent, Maleic acid for CC(=O)CC(C)C [MIBK, methyl isobutylketone]
4.14
